Ref: patent US20220119513A1

TARGET_OR_TEST_SYSTEM: T1, TGFβ1 (R&D Systems)
T1 construct: also called TGFB1
T1 sequence (P01137 279-390): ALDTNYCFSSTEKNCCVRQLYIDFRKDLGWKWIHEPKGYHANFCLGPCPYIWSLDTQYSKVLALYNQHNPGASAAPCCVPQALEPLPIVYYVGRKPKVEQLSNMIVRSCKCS
TEST_METHOD_NOTES: single point SPR
EXPERIMENTAL_ENDPOINT: pKd
Convention used: pKd is expressed as -log10 of the molar concentration.

binder="Can-SL501-VH3 Y111P / Can-SL501-VL2 (antibody, V domains shown) VH: EVQLVESGGDLVKPGGSLRLSCVASGFTFSSYGMHWVRQAPGKELEWVAVISYDGSIKYYADAVKGRFTISRDNAKNTLYLQMNSLRAEDTAVYYCARTGEYSGYDTDPQPSWGQGTTVTVSS VL: EIVMTQSPGSLAGSAGESVSINCRASQGIGDDLGWYQQKPGERPKLLIYGTSTLQSGVPARFSSSGSGTDFTLTINNLQAEDVGDYYCLQDSNYPLTFGAGTK" experimental_endpoint=pKd val=8.13

Shift focus to the following entry.
Asked: Please supply the value of reported pKd for the item Can-SL501-VH3 S112A / Can-SL501-VL2 (antibody, V domains shown) VH: EVQLVESGGDLVKPGGSLRLSCVASGFTFSSYGMHWVRQAPGKELEWVAVISYDGSIKYYADAVKGRFTISRDNAKNTLYLQMNSLRAEDTAVYYCARTGEYSGYDTDPQYAWGQGTTVTVSS VL: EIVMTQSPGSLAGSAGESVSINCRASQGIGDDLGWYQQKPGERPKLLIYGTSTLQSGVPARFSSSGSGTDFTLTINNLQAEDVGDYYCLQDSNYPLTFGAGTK
Given back: 9.06
